Target: T1, mouse CD73 on transfected HEK cells (mouse, UniProt Q61503 29-551)
T1 construct: whole, on cells; also called murine CD73; gene ID 23959
T1 sequence (looked up): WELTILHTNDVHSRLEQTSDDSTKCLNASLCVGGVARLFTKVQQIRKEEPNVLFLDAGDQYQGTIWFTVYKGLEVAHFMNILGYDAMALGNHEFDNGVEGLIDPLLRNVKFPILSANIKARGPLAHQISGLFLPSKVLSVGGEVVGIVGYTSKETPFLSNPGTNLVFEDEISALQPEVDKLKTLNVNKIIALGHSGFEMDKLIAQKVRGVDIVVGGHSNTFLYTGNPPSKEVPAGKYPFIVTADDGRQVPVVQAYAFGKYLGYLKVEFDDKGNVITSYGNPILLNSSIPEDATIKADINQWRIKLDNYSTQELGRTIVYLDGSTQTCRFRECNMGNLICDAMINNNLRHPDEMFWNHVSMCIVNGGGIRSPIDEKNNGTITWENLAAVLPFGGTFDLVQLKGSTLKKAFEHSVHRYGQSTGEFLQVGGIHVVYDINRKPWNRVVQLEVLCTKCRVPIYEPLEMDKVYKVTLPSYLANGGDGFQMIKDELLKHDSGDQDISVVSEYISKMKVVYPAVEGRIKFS
Experiment: specificity column, binding to human (h) and mouse (m) CD73
Endpoint Name: binding result

SB139 rabbit IgG hcAb (Fc fusion, not shown: hinge and Fc-domains of rabbit IgG) heavy: QVQLQESGGGLVQAGGSLRLSCAASENIFNIYGMGWYRQAPGKLRDLVAKITSGGRTTYADSVKGRFTISGDNAKNTVYLQMNSLKPEDTAVYYCNSYYYWGQGTQVTVSS: binds
SB116 rabbit IgG hcAb (Fc fusion, also called SB116-rbFc; dimeric SB116 Fc construct; not shown: hinge and Fc-domains of rabbit IgG) heavy: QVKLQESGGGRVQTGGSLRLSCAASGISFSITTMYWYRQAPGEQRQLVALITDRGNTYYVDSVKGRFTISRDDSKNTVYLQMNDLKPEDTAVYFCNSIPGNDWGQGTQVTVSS: binds
